Hello, the source for this data is ChEMBL document CHEMBL3763019, in case you need it.

Target: Phosphatidylinositol 4,5-bisphosphate 3-kinase catalytic subunit alpha isoform (Homo sapiens, UniProt P42336)
Sequence (P42336 whole entry, canonical isoform): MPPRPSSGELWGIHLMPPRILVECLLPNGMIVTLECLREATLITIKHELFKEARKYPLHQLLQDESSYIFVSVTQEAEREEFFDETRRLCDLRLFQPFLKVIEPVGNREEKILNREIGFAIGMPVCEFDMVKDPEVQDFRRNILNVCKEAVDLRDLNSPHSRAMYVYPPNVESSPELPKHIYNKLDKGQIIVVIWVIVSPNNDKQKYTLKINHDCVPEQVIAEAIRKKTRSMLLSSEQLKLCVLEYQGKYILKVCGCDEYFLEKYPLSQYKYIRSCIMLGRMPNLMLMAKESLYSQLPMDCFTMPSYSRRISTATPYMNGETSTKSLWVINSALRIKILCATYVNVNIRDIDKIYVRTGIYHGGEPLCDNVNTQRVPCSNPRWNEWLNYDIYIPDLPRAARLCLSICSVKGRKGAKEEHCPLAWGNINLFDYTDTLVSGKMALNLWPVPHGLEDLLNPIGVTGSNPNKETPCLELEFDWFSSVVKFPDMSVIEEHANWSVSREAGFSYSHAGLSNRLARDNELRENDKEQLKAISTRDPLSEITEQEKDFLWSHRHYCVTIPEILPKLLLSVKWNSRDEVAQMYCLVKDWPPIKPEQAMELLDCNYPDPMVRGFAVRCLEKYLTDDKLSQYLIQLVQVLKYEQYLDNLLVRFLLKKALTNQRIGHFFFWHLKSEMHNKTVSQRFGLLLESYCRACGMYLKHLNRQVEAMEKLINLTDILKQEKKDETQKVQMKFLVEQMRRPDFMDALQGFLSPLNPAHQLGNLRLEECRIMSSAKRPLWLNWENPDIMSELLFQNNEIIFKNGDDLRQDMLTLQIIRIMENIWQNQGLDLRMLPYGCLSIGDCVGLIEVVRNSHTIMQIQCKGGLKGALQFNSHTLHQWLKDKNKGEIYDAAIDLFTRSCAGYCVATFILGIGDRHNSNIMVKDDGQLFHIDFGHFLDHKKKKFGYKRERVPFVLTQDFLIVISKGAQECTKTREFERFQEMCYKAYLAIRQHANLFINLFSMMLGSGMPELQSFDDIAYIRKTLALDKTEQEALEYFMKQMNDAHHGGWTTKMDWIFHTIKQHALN
Assay: Inhibition of PI3K-alpha (unknown origin) using PIP2 as substrate incubated for 1 hr by Kinase-Glo luminescent kinase assay
property_name: pIC50
In simple prose, pIC50 is minus the logarithm base ten of a concentration in moles per litre.

CCN(CC)CC#Cc1ccnc2ccc(-c3cnc(OC)c(NS(=O)(=O)c4ccc(F)cc4F)c3)cc12 | 7.48

Input: Which pIC50 value belongs to COc1ncc(-c2ccc3nccc(C#CCN4CCCCC4C)c3c2)cc1NS(=O)(=O)c1ccc(F)cc1F (stereo unspecified) ?
Output: 7.21

Input: Which pIC50 value belongs to COc1ncc(-c2ccc3nccc(C#CCN4CCOCC4)c3c2)cc1NS(=O)(=O)c1ccc(F)cc1F ?
Output: 8.68

Input: Which pIC50 value belongs to COc1ncc(-c2ccc3nccc(C#CCN(C)CCO)c3c2)cc1NS(=O)(=O)c1ccc(F)cc1F ?
Output: 8.41

Input: Which pIC50 value belongs to COc1ncc(-c2ccc3nccc(C#CCN(C)C)c3c2)cc1NS(=O)(=O)c1ccc(F)cc1F ?
Output: 8.43

Input: Which pIC50 value belongs to COc1ncc(-c2ccc3nccc(C#CCN4CCN(S(C)(=O)=O)CC4)c3c2)cc1NS(=O)(=O)c1ccc(F)cc1F ?
Output: 8.70
